Reference source: ChEMBL document CHEMBL1201862

Test system: HCC 2998
assay.protocol: NCI tumour cell line growth inhibition, 48 h
Active and inactive are the calls of the source. Rule as the data show it: active = GI50 up to about 1.1 µM and inactive = higher.
metric: GI50

Which GI50 value belongs to CCOC(=O)c1cnc2oc(/C=N/N3CC(CN4CCOCC4)OC3=O)cc2c1O (stereo not given) ? > 100 µM (inactive)

For `Cc1cc(C)cc(-n2c3nc(=O)n(C)c(=O)c-3nc3ccccc32)c1` then? 18.1 µM (inactive)

For `O=C(/C=C1/Nc2ccc([N+](=O)[O-])cc2N/C1=C/C(=O)c1ccc(Cl)cc1)c1ccccc1` then? > 100 µM (inactive)

For Cc1cc(S(=O)(=O)O)c(NC(=O)C(=O)C2C=CCS2(=O)=O)cc1Cl (stereo not given) then? > 100 µM (inactive)

Next:
Which GI50 value belongs to O=NN1C(c2ccccc2)CNC(=O)CC1c1ccccc1 (stereo not given) ? 27.3 µM (inactive)

====

System: HOP-62
assay.protocol: NCI tumour cell line growth inhibition, 48 h
Activity calls are given as the source filed them. No stated cut-off is given here; in the data, active = GI50 up to about 1.1 µM and inactive = higher.
Readings of GI50 for the listed molecules

Which GI50 value belongs to `CC1=C(C(=O)Nc2cc(=O)n(C)c(=O)n2C)C(c2ccc([N+](=O)[O-])cc2)C(C(=O)Nc2cc(=O)n(C)c(=O)n2C)=C(C)N1` ? 18.1 µM (inactive)

For CC1=NN(C(=O)CC(=O)Nc2cccc(Cl)c2)C(=O)C1/N=N\c1ccc(S(=O)(=O)c2ccc(/N=N/C3C(=O)N(C(=O)CC(=O)Nc4cccc(Cl)c4)N=C3C)cc2)cc1 (centres undefined) then? > 100 µM (inactive)

====

System: HOP-62
assay.protocol: NCI tumour cell line growth inhibition, 48 h
Activity calls are given as the source filed them. Cut-off read from the data, not from the text of the source: active = GI50 up to about 1.1 µM and inactive = higher.
Readings of GI50 for the listed molecules

Recorded GI50 for O=c1[nH]c(=O)n(C2CC(O)C(CO)O2)cc1C#Cc1cc(C(F)(F)F)cc(C(F)(F)F)c1 (centres undefined) with HOP-62, please? > 68.1 µM (inactive)

For `CC(=O)OC[C@@]12CC[C@H]3C(C)(C)CCC[C@]3(C)[C@H]1C[C@@H](C1=CC(=O)O[C@H]1O)O2` then? 10.4 µM (inactive)

For `CC(C)Oc1c(C2(c3ccccc3)SCCCS2)c(=O)c1=O` then? > 100 µM (inactive)

Proceeding to the next molecule to report its GI50.
Recorded GI50 for `COc1ccc(N2C(=O)c3c(c4[nH]c5ccc(OC)cc5c4c4ccc(C(C)(C)C)cc34)C2=O)cc1` with HOP-62, please? > 100 µM (inactive)

====

Test system: M14
assay.protocol: NCI tumour cell line growth inhibition, 48 h
Activity calls are given as the source filed them. No stated cut-off is given here; in the data, active = GI50 up to about 1.1 µM and inactive = higher.
Use one of these outcomes when replying: active, inactive

Use these answered entries as a reference point.
What is the recorded call for this molecule in the test? `CNC(=O)c1nn[nH]c1Sc1c([N+](=O)[O-])ncn1C` inactive

For `CCCC(=O)/C=C/S/C=C/C(=O)CCC` then? inactive

For `O=C1Nc2ccc(Cl)c(I)c2C1=O` then? inactive

Next:
What is the recorded call for this molecule in the test? CC1=NC(C)(COC(=O)C2(C)NC(C)(CO)CO2)COC1=O (configuration not stated) inactive

For `O=C(CSc1nnc(-c2ccc(/N=C\c3ccc(Cl)cc3)cc2)o1)Nc1cccc([N+](=O)[O-])c1` then? inactive

For `COc1ccc2nc3ccccc3c(NCCCCN(CCCl)CCCl)c2c1` then? active

For `CCN=C=NCCCN(C)C` then? inactive

For `O=C(O)CNS(=O)(=O)c1ccc(NC(=O)c2ccccc2[N+](=O)[O-])cc1` then? inactive

For `Cc1cc(NS(=O)(=O)c2ccc(NC(=O)c3cccc4c(Nc5ccc(S(=O)(=O)N=C(N)N)cc5)c5ccccc5nc34)cc2)no1` then? inactive

For `CCN(CC)C(=O)c1c(N2CCOCC2)cc(N(CC)CC)oc1=O` then? inactive

For `OC[C@@H](O)[C@H]1NC[C@@H](O)[C@H]1O` then? inactive

For `CC(C)Oc1c(C2(c3ccccc3)SCCCS2)c(=O)c1=O` then? inactive
